# System: Proteus vulgaris N74-1
Provide the recorded MIC for the entries that follow.

q: Supply reported MIC belonging to this compound: CCN1CCN(C(=O)NC(C(=O)NC2C(=O)N3C(C(=O)O)=C(CSc4n[nH]c(-n5cccn5)n4)CS[C@H]23)c2ccc(O)cc2)C(=O)C1=O (stereo partly shown)
a: 16 µg/mL

q: Supply reported MIC belonging to this compound: Cc1nnc(SCC2=C(C(=O)O)N3C(=O)[C@@H](NC(=O)Cn4cnnn4)[C@H]3SC2)s1 [Compound XII, Cefazolin, reference compound]
a: > 128 µg/mL

q: Supply reported MIC belonging to this compound: CC(=O)OCC1=C(C(=O)O)N2C(=O)[C@@H](NC(=O)[C@H](N)c3ccccc3)[C@H]2SC1 [Compound XI, Cephaloglycin, reference compound]
a: > 128 µg/mL

q: Supply reported MIC belonging to this compound: CO/N=C(\C(=O)NC1C(=O)N2C(C(=O)O)=C(CSc3n[nH]c(-n4cccn4)n3)CSC12)c1csc(N)n1 (stereo not shown)
a: 2 µg/mL

---

Provide the recorded MIC for the entries that follow.
# System: Pseudomonas aeruginosa PD05141
# Assay Info: In vitro MIC, agar dilution, Pseudomonas aeruginosa PD05141
# Format: cell-based
# Reported Conditions: Pseudomonas aeruginosa PD05141; agar dilution, 35° C., 18 hours, nutrient agar; read-out: Minimal Inhibitory Concentration

q: Please report MIC with Pseudomonas aeruginosa PD05141 for item CC(=O)OCC1=C(C(=O)O)N2C(=O)[C@@H](NC(=O)[C@H](N)c3ccccc3)[C@H]2SC1 [Compound XI, Cephaloglycin, reference compound] .
a: > 128 µg/mL

q: Please report MIC with Pseudomonas aeruginosa PD05141 for item CCN1CCN(C(=O)NC(C(=O)NC2C(=O)N3C(C(=O)O)=C(CSc4nnc(-n5cccn5)n4N)CS[C@H]23)c2ccc(O)cc2)C(=O)C1=O (stereo partly drawn) .
a: 64 µg/mL

q: Please report MIC with Pseudomonas aeruginosa PD05141 for item CCN1CCN(C(=O)NC(C(=O)NC2C(=O)N3C(C(=O)O)=C(CSc4n[nH]c(-n5cccn5)n4)CS[C@H]23)c2ccc(O)cc2)C(=O)C1=O (stereo partly drawn) .
a: 64 µg/mL

q: Please report MIC with Pseudomonas aeruginosa PD05141 for item N[C@@H](C(=O)NC1C(=O)N2C(C(=O)O)=C(CSc3n[nH]c(-n4cccn4)n3)CS[C@H]12)c1ccccc1.O=C(O)C(F)(F)F (stereo partly drawn) .
a: > 128 µg/mL

q: Please report MIC with Pseudomonas aeruginosa PD05141 for item Cc1nnc(SCC2=C(C(=O)O)N3C(=O)[C@@H](NC(=O)Cn4cnnn4)[C@H]3SC2)s1 [Compound XII, Cefazolin, reference compound] .
a: > 128 µg/mL

q: Please report MIC with Pseudomonas aeruginosa PD05141 for item CO/N=C(\C(=O)NC1C(=O)N2C(C(=O)O)=C(CSc3nnc(-n4nc(C)cc4C)n3N)CSC12)c1csc(N)n1 (stereo not drawn) .
a: > 128 µg/mL

---

# System: Proteus morganii K72
# Assay Info: In vitro MIC, agar dilution, Proteus morganii K72
# Assay type: cell-based
# Reported Conditions: Morganella morganii; Proteus morganii K72; agar dilution, 35° C., 18 hours, nutrient agar; read-out: Minimal Inhibitory Concentration
Readout Kind: MIC

q: Please report MIC with Proteus morganii K72 for item CO/N=C(\C(=O)NC1C(=O)N2C(C(=O)O)=C(CSc3nnc(-n4cccn4)n3N)CSC12)c1csc(N)n1 (stereo not drawn) .
a: ≤ 0.12 µg/mL

q: Please report MIC with Proteus morganii K72 for item N[C@@H](C(=O)NC1C(=O)N2C(C(=O)O)=C(CSc3n[nH]c(-n4cccn4)n3)CS[C@H]12)c1ccccc1.O=C(O)C(F)(F)F (stereo partly drawn) .
a: > 128 µg/mL

q: Please report MIC with Proteus morganii K72 for item CC(=O)OCC1=C(C(=O)O)N2C(=O)[C@@H](NC(=O)[C@H](N)c3ccccc3)[C@H]2SC1 [Compound XI, Cephaloglycin, reference compound] .
a: > 128 µg/mL
